Recorded normalized growth for the following molecules
protocol summary: chemical genetic growth profiling, strain panel (AID 1159580);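 further: tested at 20 µM; growth read once vehicle control cultures reached saturation at 30 °C; 1 = growth at the plate median or of vehicle wells; lower values mean less growth of the strain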
experimental context: S. cerevisiae deletion strains, growth OD, locus YOR061W, strain CKA2, stronger effect = lower value
Screen size: about 5,500 compounds; about 2,000 (36%) were called active. Inconclusive results (about 18%) are left out. Some of the results follow.
Response field accepts a number only; no unit should be typed.

>  <molecule>
O=c1c(Sc2ccc(Cl)cc2)c(Sc2ccc(Cl)cc2)c1=O

>  <normalized growth>
0.266

$$$$
>  <molecule>
CC(C)(C)CN/C(C#N)=C(/C#N)NCc1cccc(Cl)c1

>  <normalized growth>
1

$$$$
>  <molecule>
COc1cc2c(cc1OC)[C@@H]1C(=O)c3ccc(O)c(CC=C(C)C)c3O[C@@H]1CO2

>  <normalized growth>
0.99

$$$$
>  <molecule>
COc1ccc(/C=C2\CSc3ccc(F)cc3C2=O)cc1

>  <normalized growth>
0.933

$$$$
>  <molecule>
O=S(=O)(Nc1cccc2nsnc12)c1cc(Cl)sc1Cl

>  <normalized growth>
0.943

$$$$
>  <molecule>
COc1cc(NC(=S)N(C)C)c(OC)cc1Cl

>  <normalized growth>
0.996

$$$$
>  <molecule>
COc1cc2c(cc1OC)[C@@H]1C(=O)c3ccc4oc(C(C)C)cc4c3O[C@@H]1CO2

>  <normalized growth>
1.02

$$$$
>  <molecule>
COc1ccc2c3c1O[C@H]1C[C@@H](O)C=C[C@@]31CCN(C)C2

>  <normalized growth>
1.01

$$$$

Looking up COc1cc2c(cc1OC)[C@@H]1C(=O)c3ccc4c(c3O[C@@H]1CO2)C=CC(C)(C)O4 , I see its normalized growth listed as 0.987

Looking up COc1cc(NC(=S)NNS(=O)(=O)c2ccc(C)cc2)c(OC)cc1Cl , I see its normalized growth listed as 0.967

###

Recorded normalized growth for the following molecules
protocol summary: chemical genetic growth profiling, strain panel (AID 1159580)
experimental context: S. cerevisiae deletion strains, growth OD, locus YMR263W, strain SAP30, stronger effect = lower value
Screen size: about 5,500 compounds; about 2,000 (36%) were called active. Not shown: some 18% with an inconclusive outcome. Some of the results follow.
Response field accepts a number only; no unit should be typed.

Sample answers from the record:
>  <molecule>
CC1(C)OC(=O)NC1=O

>  <observed value>
0.981

$$$$
>  <molecule>
CC[C@H](/C=C/C(C)C1CCC2C3CCC4=CC(=O)CC[C@]4(C)C3CC[C@]12C)C(C)C (stereo partly specified)

>  <observed value>
1.01

$$$$
>  <molecule>
CC(=O)OCC1=C(C(=O)O)N2C(=O)C(NC(=O)CSc3ccncc3)C2SC1 (stereo unspecified)

>  <observed value>
0.974

$$$$
>  <molecule>
C[C@@H]1O[C@@H](O[C@H]2C[C@@H](O)[C@]3(CO)[C@H]4[C@H](O)C[C@]5(C)[C@@H](C6=CC(=O)OC6)CC[C@]5(O)[C@@H]4CC[C@]3(O)C2)[C@H](O)[C@H](O)[C@H]1O

>  <observed value>
0.996

$$$$

Looking up Cc1cccc(C)c1NC(=O)C(C)Oc1ccc(Cl)cc1Cl (stereo unspecified) , I see its normalized growth listed as 1

Looking up C=C(C)[C@@H]1[C@H]2OC(=O)[C@@H]1[C@]1(O)C[C@H]3O[C@]34C(=O)O[C@H]2[C@]14C , I see its normalized growth listed as 1.01

Looking up CCCCCCCCCCCCCCCC(=O)OC/C=C(C)/C=C/C=C(C)/C=C/C1=C(C)CCCC1(C)C , I see its normalized growth listed as 1

Looking up O=C(O)C1=CCCN(CCON=C(c2ccccc2)c2ccccc2)C1 , I see its normalized growth listed as 1

Looking up COc1ccc(OC)c(C(O)C(C)N)c1 (stereo unspecified) , I see its normalized growth listed as 1.03

Looking up CC(C)(O)[C@@H]1[C@H]2OC(=O)[C@@H]1[C@]1(O)C[C@H]3O[C@]34C(=O)O[C@H]2[C@]14C , I see its normalized growth listed as 1.01

###

protocol summary: chemical genetic growth profiling, strain panel (AID 1159580);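 further: tested at 20 µM; growth read once vehicle control cultures reached saturation at 30 °C; 1 = growth at the plate median or of vehicle wells; lower values mean less growth of the strain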
experimental context: S. cerevisiae deletion strains, growth OD, locus YDL134C, strain PPH21, stronger effect = lower value
Out of some 5,500 compounds screened, about 2,000 (36%) were called active. Not shown: some 18% with an inconclusive outcome. This is one part of the list.
Recorded normalized growth for the following molecules
Response field accepts a number only; no unit should be typed.

Sample answers from the record:
>  <molecule>
COc1ccc2c(c1OC)C(=O)O[C@@H]2[C@H]1c2cc3c(cc2CCN1C)OCO3

>  <normalized growth>
1.01

$$$$
>  <molecule>
CC[C@H]1OC(=O)[C@H](C)[C@@H](O[C@H]2C[C@@](C)(OC)[C@@H](O)[C@H](C)O2)[C@H](C)[C@@H](O[C@@H]2O[C@H](C)C[C@H](N(C)C)[C@H]2O)[C@](C)(O)C[C@@H](C)CN(C)[C@H](C)[C@@H](O)[C@]1(C)O

>  <normalized growth>
0.993

$$$$
>  <molecule>
CC(=O)N[C@@H](CC(C)C)C(=O)O

>  <normalized growth>
0.987

$$$$
>  <molecule>
O=C(O)c1cc2ccccc2[nH]1

>  <normalized growth>
1.01

$$$$
>  <molecule>
C[C@@H]1[C@H]2[C@H](O[C@@H]3O[C@H](CO)[C@@H](O)[C@H](O)[C@H]3O)OC=C(C(=O)O)[C@H]2C[C@@H]1O

>  <normalized growth>
0.999

$$$$

Looking up CC(NCCc1ccc(O)cc1)C(O)c1ccc(O)cc1 (centres undefined) , I see its normalized growth listed as 0.977

Looking up CCCCCCCCNC(C)C(O)c1ccc(SC(C)C)cc1 (centres undefined) , I see its normalized growth listed as 0.047

Looking up CN(C)c1ccc(C(=O)NN)cc1 , I see its normalized growth listed as 1.01

Looking up COc1ccc(S(=O)(=O)Nc2ccccc2Oc2ccc(Cl)cc2Cl)cc1OC , I see its normalized growth listed as 1.01

###

protocol summary: chemical genetic growth profiling, strain panel (AID 1159580);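 further: tested at 20 µM; growth read once vehicle control cultures reached saturation at 30 °C; 1 = growth at the plate median or of vehicle wells; lower values mean less growth of the strain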
experimental context: S. cerevisiae deletion strains, growth OD, locus YLR342W, strain FKS1, stronger effect = lower value
Out of some 5,500 compounds screened, about 2,000 (36%) were called active. Not shown: some 18% with an inconclusive outcome. This is one part of the list.
result type: normalized growth
Response field accepts a number only; no unit should be typed.

>  <compound>
COc1ccc2c(c1OC)C(=O)O[C@H]2[C@H]1c2cc3c(cc2CCN1C)OCO3

>  <result type>
normalized growth

>  <observed value>
0.996

$$$$
>  <compound>
CCN(CC)CCCC(C)Nc1ccnc2cc(Cl)ccc12 (stereo unspecified)

>  <result type>
normalized growth

>  <observed value>
1.03

$$$$
>  <compound>
COc1cc2c(cc1OC)C(=O)OC2

>  <result type>
normalized growth

>  <observed value>
0.999

$$$$
>  <compound>
CC(N)C(=O)OC(C)(C)Cc1ccc(Cl)cc1 (stereo unspecified)

>  <result type>
normalized growth

>  <observed value>
1.02

$$$$
>  <compound>
COCCc1ccc(OCC(O)CNC(C)C)cc1 (stereo unspecified)

>  <result type>
normalized growth

>  <observed value>
0.993

$$$$

# evaluate next
Looking up CC1(C)OC(=O)NC1=O , I see its normalized growth listed as 1.02

###

protocol summary: chemical genetic growth profiling, strain panel (AID 1159580);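 further: tested at 20 µM; growth read once vehicle control cultures reached saturation at 30 °C; 1 = growth at the plate median or of vehicle wells; lower values mean less growth of the strain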
experimental context: S. cerevisiae deletion strains, growth OD, locus YJL115W, strain asf1, stronger effect = lower value
Screen size: about 5,500 compounds; about 2,000 (36%) were called active. Another 18% or so got no clear call; they are omitted. The list shows a part of the results.
result type: normalized growth
Response field accepts a number only; no unit should be typed.

Sample answers from the record:
>  <molecule>
C=C(C)C1CNC(C(=O)O)C1CC(=O)O (centres undefined)

>  <normalized growth>
0.98

$$$$
>  <molecule>
Cc1cccc(C)c1OCC(C)N (centres undefined)

>  <normalized growth>
1.01

$$$$
>  <molecule>
c1ccc(N=Nc2ccccc2)cc1

>  <normalized growth>
0.989

$$$$
>  <molecule>
CNC(C)[C@H](O)c1ccccc1 (some centres undefined)

>  <normalized growth>
0.993

$$$$
>  <molecule>
ClC1=C(Cl)C2(Cl)C3C4C=CC(C4)C3C1(Cl)C2(Cl)Cl (centres undefined)

>  <normalized growth>
0.989

$$$$

Looking up CC1=C(/C=C/C(C)=C/C=C/C(C)=C/C=C/C=C(C)/C=C/C=C(C)/C=C/C2=C(C)C(=O)CCC2(C)C)C(C)(C)CCC1=O , I see its normalized growth listed as 0.98

Looking up COC1=CC(=O)C[C@@H](C)[C@]12Oc1c(Cl)c(OC)cc(OC)c1C2=O , I see its normalized growth listed as 0.981

Looking up CC1=C(/C=C/C(C)=C/C=C/C(C)=C/C=C/C=C(C)/C=C/C=C(C)/C=C/C(=O)[C@]2(C)C[C@@H](O)CC2(C)C)C(C)(C)C[C@H](O)C1 , I see its normalized growth listed as 1.02

Looking up CO[C@H]1[C@H](O)[C@H](O[C@H]2CC[C@]3(C)C4CC[C@]5(C)C(C6=CC(=O)OC6)CC[C@]5(O)C4CC[C@@H]3C2)O[C@@H](C)[C@@H]1O (some centres undefined) , I see its normalized growth listed as 0.999

Looking up N=c1ccn2c(n1)O[C@@H]1C2O[C@H](CO)[C@H]1O (some centres undefined) , I see its normalized growth listed as 1
